Experiment: small-molecule microarray binders of probe aLefty2, primary screen, biochemical, biotinylated probe, 635/667 nm fluorescence (AID 1094);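 note: score merges spot fluorescence near 667 nm with spot signal-to-noise ratio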
Details: higher = more signal
metric_name: composite z-score

compound	test_value
CC(CCN1CCc2nc(-c3ccccc3)c(-c3ccccc3)cc2C1)=NOC[C@@H](O)COCc1ccco1	-0.176
COC(=O)[C@H](C)NC(=O)CCC1CC(OC(=O)NCCc2ccc(F)cc2)CC2(CCCC(COC(=O)NCCC(C)C)O2)O1 (stereo partly specified)	-0.209
CON=CC[C@@H]1C=C[C@H](OC(C)=O)[C@@H](COC(C)=O)O1	0.253
CCCCC#C[C@@H]1C=C[C@H](Oc2ccc(C(=O)OC)cc2)[C@@H](COC(=O)OCC)O1	-0.115
C[C@@H]1C=CCC(=O)OC[C@H]2O[C@@H](C=C[C@@H]2O)[C@H](C)C=CCC(=O)OC1	-0.254
CCCCc1nc2c(c3c1C[C@H](C)OC3)CN(CCOc1ccccc1)CC2	-0.005
O=C1C[C@@H](O)[C@@H](O)[C@@H]2[C@@H]3C(=O)N(C[C@@H]4CCCO4)C(=O)[C@@H]3CC[C@H]12	-0.108
C[C@@H]1NC(=O)[C@@H](C)COC(=O)[C@H](C)NC(=O)[C@@H](C)COC1=O	-0.0186
O=C1C[C@@H](O)[C@@H](O)[C@@H]2[C@@H]3C(=O)N(Cc4ccccc4)C(=O)[C@@H]3CC[C@@H]12	-0.14
CO[C@@H]1C=CCC(=O)N2CCC[C@H]2C(=O)OC[C@@H](C)C(=O)OC[C@H]1C	-0.143
C[C@@H](ON=C1[C@H]2CCn3c(=O)n(-c4ccccc4)c(=O)n3[C@H]2[C@H](O)[C@@H]2O[C@H]12)c1cn([C@@H]2COC[C@H]2O)nn1	-0.152
COC(=O)CC=C[C@@H](C)[C@@H](C=NO[C@@H](C)c1cc(-c2c(C)cc(C)cc2C)no1)NS(=O)(=O)c1ccc(C)cc1	0.0221
CC(=O)O[C@H]1C2=CO[C@H](C)[C@H]3[C@H]4C5=C([C@H](O)[C@H]6O[C@H]6C5=O)[C@H](OC4C)[C@@]23C(=O)[C@@H]2O[C@@H]21 (stereo partly specified)	-0.299
O=C1[C@H]2[C@H]3[C@H](O)[C@H](O)CC(=NOCc4ccccc4)[C@@H]3CC[C@H]2C(=O)N1c1ccc(F)cc1F	-0.205
COc1ccc(O[C@H]2C=C[C@@H](c3ccccc3)O[C@@H]2COC(=O)CCC(C)=NOC(C)CN2CCCc3nc(C)c(C)cc32)cc1 (stereo partly specified)	-0.0345
CC(C)CCN1CCc2nc(COc3ccccc3)c3c(c2C1)CO[C@@H](C)C3	0.111

Each recorded value in this set is attributed to PubChem BioAssay.
